# assay_info: self-splicing fitness, log relative to wild type (ln ratio); higher = more splicing; Tetrahymena group I intron in knt gene, E. coli kanamycin selection, DiMSum; sequences stand for … in CUCUCU…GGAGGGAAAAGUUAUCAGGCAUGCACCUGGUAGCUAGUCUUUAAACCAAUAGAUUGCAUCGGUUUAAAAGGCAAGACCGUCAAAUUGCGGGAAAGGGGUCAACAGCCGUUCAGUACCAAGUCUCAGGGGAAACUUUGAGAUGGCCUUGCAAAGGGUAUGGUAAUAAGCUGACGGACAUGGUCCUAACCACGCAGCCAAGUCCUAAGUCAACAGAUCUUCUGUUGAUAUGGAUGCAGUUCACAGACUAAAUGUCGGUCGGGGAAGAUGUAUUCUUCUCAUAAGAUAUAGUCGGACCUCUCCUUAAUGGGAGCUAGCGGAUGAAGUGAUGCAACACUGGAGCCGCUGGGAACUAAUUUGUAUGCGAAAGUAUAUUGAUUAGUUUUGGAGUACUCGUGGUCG;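 further: selection with 25 µg/mL kanamycin versus none on LB agar overnight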
# condition_details: 37 °C
// classify(record): look up self-splicing fitness (ln) in ranges b0 (below -2), b1 (-2 to below -1), b2 (-1 or more)

Look over these answered cases.
sequence_text=UUACAGCAAUAUUACGACGC classification=b1
sequence_text=UGUUAGCAAUAUUACGAUUG classification=b2
sequence_text=CUUGAGCAAUAUUACGAGGC classification=b0
sequence_text=GCGGAGCAAUAUUACGGUGG classification=b0
sequence_text=ACCGAGCAAUAUUACGCCUA classification=b1

Task: Entry `GCUUAGCAAUAUUACGCUGU` belongs to which category?
Output: b1

Task: Moving on to `GUACAGCAAUAUUACGUUUC`
Output: b1

----------
# assay_info: self-splicing fitness, log relative to wild type (ln ratio); higher = more splicing; Tetrahymena group I intron in knt gene, E. coli kanamycin selection, DiMSum; sequences stand for … in CUCUCU…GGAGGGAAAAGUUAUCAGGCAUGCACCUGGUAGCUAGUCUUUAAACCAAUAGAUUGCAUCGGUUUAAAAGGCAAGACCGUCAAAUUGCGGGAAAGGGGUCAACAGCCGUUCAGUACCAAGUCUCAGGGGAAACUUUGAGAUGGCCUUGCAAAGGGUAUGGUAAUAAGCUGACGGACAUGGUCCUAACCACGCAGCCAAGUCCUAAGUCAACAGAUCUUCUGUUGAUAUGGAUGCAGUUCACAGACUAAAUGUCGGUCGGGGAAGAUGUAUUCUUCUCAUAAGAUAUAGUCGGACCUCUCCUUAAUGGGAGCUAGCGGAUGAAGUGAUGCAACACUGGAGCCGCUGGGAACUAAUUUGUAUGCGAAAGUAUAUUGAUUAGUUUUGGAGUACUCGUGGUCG
# condition_details: 37 °C
readout_type: self-splicing fitness (ln)

sequence_text=UCGUAGCAAUAUUACGAGCA recorded_result=-1.13
sequence_text=ACACAGCAAUAUUACGGCGG recorded_result=-0.0948
sequence_text=GUCCAGCAAUAUUACGACCA recorded_result=-0.517

Provide self-splicing fitness (ln) values for the following items, in order.
1. UGCAAGCAAUAUUACGGUGA
2. CGGAAGCAAUAUUACGCGCG
3. AUGAAGCAAUAUUACGCUGC
4. AGCGAGCAAUAUUACGUAGC
5. AAUAAGCAAUAUUACGCGGG

Output:
[0.00833, -0.88, -2.42, -0.813, -1.35]

Look up self-splicing fitness (ln) for the entries below, preserving their order.
1. UUCUAGCAAUAUUACGAACG
2. CAAUAGCAAUAUUACGGACA
3. CCAUAGCAAUAUUACGAUAA
4. GCACAGCAAUAUUACGCUAG
5. GUCUAGCAAUAUUACGUAGC

Output:
[-1.15, -1.5, -3.15, -1.18, 0.302]

Each sequence below has a recorded value; state its self-splicing fitness (ln).
1. UAGCAGCAAUAUUACGGAUG
2. UAGCAGCAAUAUUACGCGGU
3. AGUUAGCAAUAUUACGCAUG

Output:
1. -0.912
2. -2.49
3. -1.15

----------
# assay_info: self-splicing fitness, log relative to wild type (ln ratio); higher = more splicing; Tetrahymena group I intron in knt gene, E. coli kanamycin selection, DiMSum; sequences stand for … in CUCUCU…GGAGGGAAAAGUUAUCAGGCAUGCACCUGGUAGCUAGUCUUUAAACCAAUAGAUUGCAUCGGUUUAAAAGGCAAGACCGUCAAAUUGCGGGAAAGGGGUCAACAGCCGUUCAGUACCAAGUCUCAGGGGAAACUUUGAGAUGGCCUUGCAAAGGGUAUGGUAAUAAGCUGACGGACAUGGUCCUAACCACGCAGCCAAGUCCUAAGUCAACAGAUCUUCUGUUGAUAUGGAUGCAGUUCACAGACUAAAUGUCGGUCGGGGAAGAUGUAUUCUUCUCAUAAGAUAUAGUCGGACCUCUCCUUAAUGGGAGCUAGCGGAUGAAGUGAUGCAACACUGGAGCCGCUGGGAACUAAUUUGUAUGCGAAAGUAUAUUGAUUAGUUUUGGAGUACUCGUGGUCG
# condition_details: 30 °C
Assign self-splicing fitness (ln) to each entry below.
Answers are plain numbers.

sequence_text=AUGAAGCAAUAUUACGGAUG recorded_result=-0.705
sequence_text=CCAUAGCAAUAUUACGUCCU recorded_result=-2.86
sequence_text=UACUAGCAAUAUUACGCAGU recorded_result=-3.26
sequence_text=AUGCAGCAAUAUUACGCAGG recorded_result=-3.71
sequence_text=UGUCAGCAAUAUUACGUUUG recorded_result=-1.26

// for each sequence in input: emit self-splicing fitness (ln)
1. GGGGAGCAAUAUUACGUAAU
2. GAUAAGCAAUAUUACGAGCG
3. UACUAGCAAUAUUACGCCCC
4. GGACAGCAAUAUUACGAUUC

Output:
1: -4.07; 2: -1.25; 3: -2.19; 4: -0.338

----------
Hi there, I'd appreciate the recorded self-splicing fitness (ln) for every entry that follows.
# assay_info: self-splicing fitness, log relative to wild type (ln ratio); higher = more splicing; Tetrahymena group I intron in knt gene, E. coli kanamycin selection, DiMSum; sequences stand for … in CUCUCU…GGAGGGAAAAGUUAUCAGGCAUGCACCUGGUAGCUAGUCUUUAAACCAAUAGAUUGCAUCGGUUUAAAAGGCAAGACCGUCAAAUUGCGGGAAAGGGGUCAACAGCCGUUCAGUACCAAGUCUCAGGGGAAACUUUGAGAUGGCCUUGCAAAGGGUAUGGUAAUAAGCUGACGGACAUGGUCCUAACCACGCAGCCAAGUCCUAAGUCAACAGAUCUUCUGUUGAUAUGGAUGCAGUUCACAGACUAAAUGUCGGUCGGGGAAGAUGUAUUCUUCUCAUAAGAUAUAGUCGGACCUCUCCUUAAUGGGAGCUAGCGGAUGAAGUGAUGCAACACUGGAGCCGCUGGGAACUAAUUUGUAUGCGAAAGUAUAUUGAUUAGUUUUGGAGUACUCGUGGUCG
# condition_details: 30 °C
Give bare numbers.

sequence_text=UGCAAGCAAUAUUACGAUUA readout_type="self-splicing fitness (ln)" recorded_result=-0.19
sequence_text=AGAAAGCAAUAUUACGGUCA readout_type="self-splicing fitness (ln)" recorded_result=-0.253
sequence_text=ACGAAGCAAUAUUACGGUCC readout_type="self-splicing fitness (ln)" recorded_result=-1.92
sequence_text=UCAUAGCAAUAUUACGCGUA readout_type="self-splicing fitness (ln)" recorded_result=-1.44
sequence_text=UGGCAGCAAUAUUACGUUUU readout_type="self-splicing fitness (ln)" recorded_result=-2.85

Can you give me self-splicing fitness (ln) for all of these, one by one?
1. UAAAAGCAAUAUUACGUUCU
2. UGGGAGCAAUAUUACGCGUU
3. CAAUAGCAAUAUUACGGCCA
4. CCUAAGCAAUAUUACGUUGU

Output:
1. -1.87
2. -2.33
3. -3.08
4. -3.37

Hello, I would appreciate it if you could give self-splicing fitness (ln) for each entry below.
1. GUGUAGCAAUAUUACGAUGU
2. AAGCAGCAAUAUUACGGAAG
3. GAGGAGCAAUAUUACGUGUC
4. ACGAAGCAAUAUUACGAGUC

Output:
1: -1.36; 2: -3.51; 3: -3.51; 4: -4.22

Could I get self-splicing fitness (ln) for every one of these entries?
1. GCGCAGCAAUAUUACGGUUA
2. ACUAAGCAAUAUUACGCGUU
3. AGAGAGCAAUAUUACGGCGG
4. GUGCAGCAAUAUUACGGGAC

Output:
-1.11
-3.36
-2.77
-2.09

Give measured self-splicing fitness (ln) for every item shown.
1. UAGGAGCAAUAUUACGAGUC
2. UGUGAGCAAUAUUACGCAAA

Output:
1. -3.68
2. -3.07

Go through the list and state self-splicing fitness (ln) for each entry.
1. GGUAAGCAAUAUUACGUCGU
2. UCCGAGCAAUAUUACGUCAU
3. CGUUAGCAAUAUUACGCGGU
4. GAUUAGCAAUAUUACGUGGC
5. GAUAAGCAAUAUUACGCAAU
6. ACCCAGCAAUAUUACGACUG
7. GCACAGCAAUAUUACGCGCC
8. CACCAGCAAUAUUACGUUUA

Output:
-1
-3.59
-3.07
-3.36
-2.21
-2.87
-2.56
-3.33

Each sequence below has a recorded value; state its self-splicing fitness (ln).
1. GCAUAGCAAUAUUACGCUUG
2. UAGAAGCAAUAUUACGACGA
3. GUAAAGCAAUAUUACGCAAU
4. UUGUAGCAAUAUUACGUUGG
5. ACAGAGCAAUAUUACGACCA
6. CUCUAGCAAUAUUACGGAUC
7. UAGUAGCAAUAUUACGACUC
8. CCUUAGCAAUAUUACGUAGG

Output:
[-3.29, -0.144, -0.316, -2.77, -0.827, -3.4, -0.329, -2.83]

Kindly give each listed record's self-splicing fitness (ln).
1. CAUAAGCAAUAUUACGGACU
2. AUAGAGCAAUAUUACGCUGU
3. CUUAAGCAAUAUUACGCCUA

Output:
-3.64
-0.963
-1.91

For every item in the list below, what is its measured self-splicing fitness (ln)?
1. UUGGAGCAAUAUUACGACAG
2. CACAAGCAAUAUUACGGUAA

Output:
1: -1.57; 2: -2.26
